Molecular target: Arginase-2, mitochondrial (Homo sapiens) (UniProt P78540)
Sequence (whole entry): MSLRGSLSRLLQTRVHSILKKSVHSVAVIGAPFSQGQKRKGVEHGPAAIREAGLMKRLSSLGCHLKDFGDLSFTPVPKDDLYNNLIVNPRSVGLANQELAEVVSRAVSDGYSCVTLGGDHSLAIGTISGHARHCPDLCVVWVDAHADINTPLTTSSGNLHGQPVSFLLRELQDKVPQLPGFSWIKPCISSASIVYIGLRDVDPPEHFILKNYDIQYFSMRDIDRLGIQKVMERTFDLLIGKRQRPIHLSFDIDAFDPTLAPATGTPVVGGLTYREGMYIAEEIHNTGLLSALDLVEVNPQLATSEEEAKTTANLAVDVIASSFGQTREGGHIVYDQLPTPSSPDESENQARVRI
Assay: in vitro enzyme assay to detect the production of urea directly proportional to the activity of Arginase II
Format: functional
Design: scale not given: in the data most compounds retested in dose-response had high values
Settings: 33.3 µM
measured.quantity: Percent Effect (%)
# value in %; strip the unit string

Need Percent Effect of O=C(Cn1ccc2c(Cl)cccc21)N1CCC2(CC1)OCCO2 , thanks.
49.3

Let us now turn to CC(Cc1c(F)cccc1F)NC(=O)Nc1cnn(CC(N)=O)c1 (stereo unspecified)
-1.07

Let us now turn to CN(C)C(=O)CN1CCN(C(=O)Cc2csc(-c3ncccn3)n2)CC1
1.92

Let us now turn to CCN(Cc1cccnc1)CC1CCCO1 (stereo unspecified)
-6.82

Let us now turn to O=C(COc1ccccc1)N1C[C@@H](O)[C@H](N2CCCC2)C1
-6.26

Let us now turn to Cc1noc(C)c1CN1C[C@H](OCC2CC2)[C@H]2OCCC[C@H]21
4.71
